B1: TPR 5TU (parent)
chain: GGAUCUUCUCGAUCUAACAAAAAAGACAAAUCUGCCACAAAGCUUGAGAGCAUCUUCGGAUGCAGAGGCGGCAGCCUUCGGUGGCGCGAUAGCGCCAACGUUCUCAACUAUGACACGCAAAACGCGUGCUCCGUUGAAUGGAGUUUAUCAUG

# Variants of: B1
# test-name: polymerase ribozyme fitness, log enrichment relative to wild type (log ratio); higher = more active; in vitro selection for triplet polymerase activity
Variants at the floor of the assay were thinned out.
Recorded polymerase ribozyme fitness (log ratio) for the following variants
Please give only the number in your answer, with no unit.

Check out these entries, answers already filled in.
INSERT INTO measurements (variant_string, test_value) VALUES
  ('U53G C54A', -2.07),
  ('A26U A122G C131A', -3.89),
  ('U15G A41U A73G', -1.57),
  ('C18A U55G C85A C118U', -2.09),
  ('U15G A16C A21U A26C C103U', -3.98),
  ('A119U G140U', -3.25),
  ('G83U A122C G133C A147C', -2.76),
  ('A137U U144G', -4.2),
  ('C35U C87G', -3.84),
  ('G83A C95A A113U', -3.12);

Please report the recorded polymerase ribozyme fitness (log ratio) for G86U A106C .
-1.79
